target: T1, cynomolgus HER3-ECD-His (cynomolgus monkey, UniProt G7PIG5 20-643); experiment: Octet (BLI)
T1 construct: extracellular domain; Bought protein (Sino Biological); also called Cyno HER3-ECD-His; Cyno HER3; not shown: His tag
T1 sequence (G7PIG5 entry or part of it): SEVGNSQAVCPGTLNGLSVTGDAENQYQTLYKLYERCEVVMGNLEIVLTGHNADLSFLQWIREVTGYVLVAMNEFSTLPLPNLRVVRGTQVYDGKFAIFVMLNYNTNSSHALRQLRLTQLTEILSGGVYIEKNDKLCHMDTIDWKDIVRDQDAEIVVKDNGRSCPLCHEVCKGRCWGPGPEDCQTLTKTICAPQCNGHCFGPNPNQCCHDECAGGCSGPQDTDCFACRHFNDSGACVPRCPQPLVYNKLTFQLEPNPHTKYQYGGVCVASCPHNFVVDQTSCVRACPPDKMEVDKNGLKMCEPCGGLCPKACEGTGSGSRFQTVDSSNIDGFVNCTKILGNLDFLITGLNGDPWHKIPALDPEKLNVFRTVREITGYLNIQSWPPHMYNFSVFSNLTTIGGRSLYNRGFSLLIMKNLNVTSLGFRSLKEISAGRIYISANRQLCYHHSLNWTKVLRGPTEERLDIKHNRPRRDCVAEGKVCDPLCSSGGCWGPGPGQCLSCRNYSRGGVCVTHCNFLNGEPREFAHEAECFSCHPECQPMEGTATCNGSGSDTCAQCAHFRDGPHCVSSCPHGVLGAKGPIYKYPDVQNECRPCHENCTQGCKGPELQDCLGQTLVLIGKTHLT
Measured Kd by item
Number only, in nM; omit the unit.

binder	unit.abbreviation	Kd
cHE4-G1W (antibody, human IgG1, V domains shown, also called chimeric HE4 antibody; cHE4-G1W4; not shown: human IgG1 heavy chain constant region, GenBank AXN93653.1; human kappa light chain constant region, GenBank AWK57456.1) VH: EVQLVESGGGLVKPGGSLKLSCAASGFTFSSYVMSWVRQTPEKRLEWVATISDGDSSTYYPDNVKGRFTISRDNAKNNLFLQMSHLKSEDTAMYFCARDKGHGYDEGAFVYWGQGTLVTVSA VL: DIQMTQSPASLSASVEETVTITCRASENIYSYLAWYQQKQGKSPQLLVYNAKTLAEGVPSRFSGSGSGTEFSLKINSLQPEDFGSYYCQNHYGTPYTFGGGTKLEIKQ	nM	0.31
cHE6-G1W (antibody, human IgG1, V domains shown, also called chimeric HE6 antibody; not shown: human IgG1 heavy chain constant region, GenBank AXN93653.1; human kappa light chain constant region, GenBank AWK57456.1) VH: EVQLQQSGPDLVKPGTSVKMSCKASGYTFTDYYMHWVRQSHGKSLEWIGYINPNNGDAIYNQKFKGKATLTVNKSSTTAYMALRSLTSEDSAVYFCATYDYGGDFYFDVWGTGTTVTVSS VL: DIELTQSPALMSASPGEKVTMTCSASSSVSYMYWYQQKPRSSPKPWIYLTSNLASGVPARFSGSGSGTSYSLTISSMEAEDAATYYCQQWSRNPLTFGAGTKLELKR	nM	1.25
cHE7-G1W (antibody, human IgG1, V domains shown, also called chimeric HE7 antibody; not shown: human IgG1 heavy chain constant region, GenBank AXN93653.1; human kappa light chain constant region, GenBank AWK57456.1) VH: EVQLQQSGPDLVKPGTSVKMSCKASGYTFTDYYMHWVRQSHGKSLEWIGYINPNNGDAIYNQKFKGKATLTVDKSSTTAYMALRSLTSEDSAVYFCATYDYGGDFYFDVWGTGTTVTVSS VL: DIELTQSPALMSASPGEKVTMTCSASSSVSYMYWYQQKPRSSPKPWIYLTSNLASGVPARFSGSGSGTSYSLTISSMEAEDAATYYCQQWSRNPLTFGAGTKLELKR	nM	1.36
cHE5-G1W (antibody, human IgG1, V domains shown, also called chimeric HE5 antibody; not shown: human IgG1 heavy chain constant region, GenBank AXN93653.1; human kappa light chain constant region, GenBank AWK57456.1) VH: EVQLQESGPGLVKPSQSLSLTCSVTGYSITSGYYWNWIRQFPGNKLEWMGYISYDGSNNYNPSLKNRISITRDTSKNQFFLKLNSVTTEDTATYYCASYDYDGDWFAYWGQGTLVTVSA VL: DIVLTQSPASLAVSLGQRATISCRASESVDHYGSSFMHWYQQKPGQPPKLLIYRASNPESGIPARFSGSGSRTDFTLTINPVETDDVATYYCQQSNKDPPTFGGGTKLEIKR	nM	3.58

Exercise: Would you kindly share the measured Kd for cHE1-G1W (antibody, human IgG1, V domains shown, also called chimeric HE1 antibody; not shown: human IgG1 heavy chain constant region, GenBank AXN93653.1; human kappa light chain constant region, GenBank AWK57456.1) VH: EVKLQESGPGLVKPSQSLSLTCSVTGYSITSGYYWNWIRQFPGNKLEWMGYISYDGSNNYNPSLKNRISITRDTSKNQFFLNLNSVTTEDTATYYCARVDWDGDAMDYWGQGTSVTVSS VL: DIVLTQSPASLAVSLGQRATISCRASESVDNYGIRLMHWYQQKSGQPPKLLIHRASNLESGIPARFSGSGSRTDFTLTINPVETDDVATYYCQQSNKDPFTFGSGTKLEIKR ?
Solution: 4.01

Exercise: Please report the recorded Kd for cHE2-G1W (antibody, human IgG1, V domains shown, also called chimeric HE2 antibody; not shown: human IgG1 heavy chain constant region, GenBank AXN93653.1; human kappa light chain constant region, GenBank AWK57456.1) VH: EVKLQESGPGLVKPSQSLSLTCSVTGYSITSGYYWNWIRQFPGNKLEWMGYISYDGSNNYNPSLKNRISITRDTSKNQFFLKLNSVTTEDTATYYCARMDWDGDAMDYWGQGTSVTVSS VL: DIVLTQSPASLAVSLGQRATISCRASESVDNYGISLMHWYQQKPGQPPKLLIYRASNLESGIPARFSGSGSRTDFTLTINPVETDDVATYYCQQSNKDPPTFGAGTKLELKR .
Solution: 3.25
